system: LOC_OS01G10900-cb004; experiment: thermal shift delta Tm vs DMSO control; higher = stronger stabilization (binding); conditions: 12.5 µM; protein concentration 2 µM;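 further: purified Escherichia coli-expressed rice kinase domain construct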
Measured thermal shift delta Tm values are reported for all entries that follow.

{"columns": ["molecule", "thermal shift delta Tm [°C]"],
 "data": [
  ["CN1CCN(c2cccc(Nc3nc4c(-c5ccc(S(C)(=O)=O)cc5)cccn4n3)c2)CC1", 1.02],
  ["Cc1ccc(NC(=O)c2ccc(CN3CC[C@H](N(C)C)C3)c(C(F)(F)F)c2)cc1Nc1nccc(-c2cncnc2)n1", 0.73],
  ["CCS(=O)(=O)N1CCN(c2ccc(Nc3ncc(C(N)=O)c(NC4CC4)n3)cc2)CC1", 1.08],
  ["COC1(c2sc3c(N4CCOCC4)nc(-c4cnc(N)nc4)nc3c2C)COC1", 1.43],
  ["COC(=O)c1ccc2c(c1)NC(=O)/C2=C(\\Nc1ccc(N(C)C(=O)CN2CCN(C)CC2)cc1)c1ccccc1", 0.18],
  ["Cc1ccc(C(=O)Nc2ccc(CN3CCN(C)CC3)c(C(F)(F)F)c2)cc1C#Cc1cnc2[nH]ncc2c1 [GZD824 Dimesylate]", 5.49],
  ["CC(C)(C)c1cc(NC(=O)Nc2ccc(-c3cn4c(n3)sc3cc(OCCN5CCOCC5)ccc34)cc2)no1", 0.82],
  ["CC(C)NC(=O)COc1cccc(-c2nc(Nc3ccc4[nH]ncc4c3)c3ccccc3n2)c1", 0.99],
  ["O=c1c(O)c(-c2cc(O)c(O)c(O)c2)oc2cc(O)cc(O)c12", 1.94],
  ["CC(C)(C)S(=O)(=O)c1ccc2nccc(Nc3n[nH]c4ccc(F)cc34)c2c1", 0.48],
  ["CC(C)(O)CC(=O)NCCn1ccc2ncnc(Nc3ccc(Oc4cccc(C(F)(F)F)c4)c(Cl)c3)c21", 1.92],
  ["FC(F)(F)c1ccc(CNc2ccc(Cc3c[nH]c4ncc(Cl)cc34)cn2)cn1", 3.09],
  ["Cc1cc(Nc2nc(N[C@@H](C)c3ncc(F)cn3)ncc2Cl)[nH]n1", 0.35],
  ["COc1cc2ncnc(Oc3ccc(CC(=O)Nc4cnn(C(C)C)c4)cc3)c2cc1OC", 0.09],
  ["Cc1c(NC(=O)OC[C@@H]2COCCN2)cn2ncnc(Nc3ccc4c(cnn4Cc4cccc(F)c4)c3)c12", 0.06],
  ["Cc1cc([C@@H](C)Nc2ccccc2C(=O)O)c2nc(N3CCOCC3)cc(=O)n2c1", 0.27]
]}

* * *

tested on: LOC_OS03G04050-cb001; experiment: thermal shift delta Tm vs DMSO control; higher = stronger stabilization (binding); details: 12.5 µM; protein concentration 2 µM
Class field: derived from thermal shift delta Tm; ranges low band = under 0.3 °C, middle band = from 0.3 °C up to 0.7 °C, high band = 0.7 °C and over

{"columns": ["molecule", "cat"],
 "data": [
  ["C#Cc1cccc(Nc2ncnc3cc(OC)c(OCCCCCCC(=O)NO)cc23)c1", "low band"],
  ["COc1ccc(Oc2cc(NCCC(F)(F)F)c3ncc(-c4ccc(C(=O)NC5CC5)c(C)c4)n3n2)c(F)c1F", "middle band"],
  ["CN1CCN(c2ccc3nc(-c4c(N)c5c(F)cccc5[nH]c4=O)[nH]c3c2)CC1 [Dovitinib (TKI-258) Dilactic Acid]", "high band"],
  ["COc1cc2c(N3CCN(C(=O)Nc4ccc(OC(C)C)cc4)CC3)ncnc2cc1OCCCN1CCCCC1", "high band"],
  ["O=c1cc(N2CCOCC2)oc2c(-c3cccc4c3sc3ccccc34)cccc12", "middle band"],
  ["O=c1c(O)c(-c2ccc(O)c(O)c2)oc2cc(O)cc(O)c12", "high band"],
  ["CCN(CC)CCCC(C)Nc1nc(C)cc(Nc2ccc3nc(C)cc(N)c3c2)n1 (stereo unspecified)", "middle band"],
  ["Cc1cc(C(=O)NOCCO)c(Nc2ccc(I)cc2F)n(C)c1=O", "low band"],
  ["O=C1Nc2ccc(CN3C(=O)CSC3=O)cc2/C1=C/c1cc(CN2CCOCC2)c[nH]1", "middle band"],
  ["O=C1NC(=O)/C(=C/c2ccc3nccc(-c4ccncc4)c3c2)S1", "middle band"],
  ["CC(C)Oc1ccc(-c2nn([C@@H](C)c3oc4ccc(F)cc4c(=O)c3-c3cccc(F)c3)c3ncnc(N)c23)cc1F", "low band"],
  ["Cc1c(Cn2c(C)nc3c(C(=O)O)cc(N4CCOCC4)cc32)cccc1C(F)(F)F", "low band"],
  ["CN1CCN(c2ccc(OC(F)(F)F)c(Nc3ncc4c(n3)-c3c(c(C(N)=O)nn3CCO)CC4)c2)CC1", "middle band"],
  ["C=CC(=O)Nc1cccc(Oc2nc(Nc3ccc(N4CCN(C)CC4)cc3)nc3ccsc23)c1", "high band"],
  ["O=C(c1ccc(F)c(F)c1Nc1ccc(I)cc1F)N1CC(O)([C@@H]2CCCCN2)C1", "high band"],
  ["OCCn1cc(-c2cnc3nnn(Cc4ccc5ncccc5c4)c3n2)cn1", "high band"],
  ["O=C1NC(=O)C(c2ccccc2[N+](=O)[O-])=C1Nc1ccc(O)c(Cl)c1", "low band"],
  ["CCOc1cc(C(=O)N2CCC(N3CCN(C)CC3)CC2)ccc1Nc1ncc2c(n1)N(C1CCCC1)c1ccccc1C(=O)N2C", "low band"],
  ["Cc1c(C(=O)N2CCOc3ccc(-c4ccc(N)nc4)cc3C2)ccc(S(C)(=O)=O)c1F", "middle band"],
  ["COCC(=O)NC/C=C/c1ccc2ncnc(Nc3ccc(Oc4ccc(C)nc4)c(C)c3)c2c1", "low band"],
  ["COCCOc1ccc2c(c1)ncn2-c1ccc2cccc(N3CCC(N)CC3)c2n1", "low band"],
  ["CCN(CC)CCCC(C)Nc1ccnc2cc(Cl)ccc12 (stereo unspecified) [Chloroquine Phosphate]", "middle band"],
  ["COc1cc2c(c(OC)c1OC)-c1c(cc3c(c1OC)OCO3)CC(C)C(C)C2 (stereo unspecified) [Schisandrin B (Sch B)]", "high band"],
  ["N#C/C(=C(/N)Sc1ccc(N)cc1)c1ccccc1C(F)(F)F", "middle band"]
]}

* * *

The entries below are paired with their reported thermal shift delta Tm.
tested on: LOC_OS03G50450-cb001; test: thermal shift delta Tm vs DMSO control; higher = stronger stabilization (binding); details: 12.5 µM; protein concentration 2 µM
property_measured: thermal shift delta Tm (°C)

{"columns": ["compound", "experimental_target", "units", "endpoint_result"],
 "data": [
  ["Cc1nc2ccc(-n3ncc(C(=O)c4cc5ccccc5[nH]4)c3N)cc2[nH]1", "LOC_OS03G50450-cb001", "°C", -0.16],
  ["CC(C)(C#N)c1ccc(N2C(=O)OCc3cnc4ccc(-c5cnc6ccccc6c5)cc4c32)cc1", "LOC_OS03G50450-cb001", "°C", 0.21],
  ["COc1ccccc1-c1cc(Nc2cccc(CS(N)(=O)=O)c2)ncn1", "LOC_OS03G50450-cb001", "°C", 0.51],
  ["COc1cc(OC)cc(-c2cc3cnc(N)nc3nc2NC(=O)NC(C)(C)C)c1", "LOC_OS03G50450-cb001", "°C", 0.18],
  ["C=CC(=O)Nc1cccc(Nc2nc(Nc3ccc(NC4CN(CCF)C4)cc3OC)ncc2C(F)(F)F)c1", "LOC_OS03G50450-cb001", "°C", 0.39],
  ["Clc1ccc(Nc2nnc(Cc3ccncc3)c3ccccc23)cc1 [Vatalanib (PTK787) 2HCl]", "LOC_OS03G50450-cb001", "°C", -0.09],
  ["C=CC(=O)Nc1ccc2ncnc(Nc3cccc(Br)c3)c2c1", "LOC_OS03G50450-cb001", "°C", 0.37],
  ["N#Cc1cccc(-c2c[nH]c3ncnc(N4CCOCC4)c23)c1", "LOC_OS03G50450-cb001", "°C", -0.1],
  ["N#Cc1c(O)c2c(-c3ccc(-c4ccccc4O)cc3)csc2[nH]c1=O", "LOC_OS03G50450-cb001", "°C", 0.66],
  ["O=c1cc(N2CCOCC2)oc2c1ccc1ccccc12", "LOC_OS03G50450-cb001", "°C", 0.43],
  ["O=C1NC(=O)[C@@H](c2cn3c4c(cccc24)CCC3)[C@@H]1c1c[nH]c2ccccc12 [Tivantinib (ARQ 197)]", "LOC_OS03G50450-cb001", "°C", 0.17],
  ["Cc1nc(Nc2n[nH]c3c2CN(C(=O)N[C@H](CN(C)C)c2ccccc2)C3(C)C)c2sccc2n1", "LOC_OS03G50450-cb001", "°C", 0.78],
  ["COC1(c2sc3c(N4CCOCC4)nc(-c4cnc(N)nc4)nc3c2C)COC1", "LOC_OS03G50450-cb001", "°C", 4.14],
  ["C[C@@H](NC(=O)c1ncnc(N)c1Cl)c1ncc(C(=O)Nc2cc(C(F)(F)F)c(Cl)cn2)s1", "LOC_OS03G50450-cb001", "°C", 0.42],
  ["CS(=O)(=O)c1cccc(CNc2nc(Nc3ccc4c(c3)CCC(=O)N4)ncc2C(F)(F)F)c1", "LOC_OS03G50450-cb001", "°C", 3.56],
  ["COc1cc2nccc(Oc3ccc(NC(=O)NC4CC4)c(Cl)c3)c2cc1C(N)=O [Lenvatinib (E7080)]", "LOC_OS03G50450-cb001", "°C", 0.39],
  ["CCOc1cn(-c2ccc(F)cc2C)nc1C(=O)Nc1ccc(Oc2ccnc3cc(OC)c(OC)cc23)c(F)c1", "LOC_OS03G50450-cb001", "°C", 0.09],
  ["CN(C)S(=O)(=O)c1ccc2c(c1)/C(=C/c1cc3c([nH]1)CCCC3)C(=O)N2", "LOC_OS03G50450-cb001", "°C", 0.97],
  ["O=C1Nc2ccc(CN3C(=O)CSC3=O)cc2/C1=C/c1cc(CN2CCOCC2)c[nH]1", "LOC_OS03G50450-cb001", "°C", 0.68],
  ["Nc1nc2cc(-c3ccc4ncc(C(=O)N5CCOCC5)n4c3)ccc2o1 [Serabelisib (INK-1117,MLN-1117,TAK-117)]", "LOC_OS03G50450-cb001", "°C", 0.93],
  ["CC[C@@H](N)CNc1ccnc(-c2cc(-c3cnn(C)c3)ccc2O)n1", "LOC_OS03G50450-cb001", "°C", 0.74],
  ["CN(C)CCOc1ccc(-c2nc(-c3ccncc3)c(-c3ccc4c(c3)CC/C4=N\\O)[nH]2)cc1", "LOC_OS03G50450-cb001", "°C", 0.04],
  ["CN1CC[C@H](c2c(O)cc(O)c3c(=O)cc(-c4ccccc4Cl)oc23)[C@H](O)C1 [Flavopiridol (Alvocidib)]", "LOC_OS03G50450-cb001", "°C", 0.4],
  ["CS(=O)(=O)c1ccc(-c2cnc(N)c(C(=O)Nc3ccccc3)n2)cc1", "LOC_OS03G50450-cb001", "°C", 0.18],
  ["Cc1ccc([N+](=O)[O-])cc1S(=O)(=O)N(C)/N=C/c1cnc2ccc(Br)cn12", "LOC_OS03G50450-cb001", "°C", 0.64],
  ["CCc1cccc(CC)c1NC(=O)N1Cc2[nH]nc(NC(=O)c3ccc(N4CCN(C)CC4)cc3)c2C1", "LOC_OS03G50450-cb001", "°C", 0.27],
  ["Cc1c(C(=O)Nc2ccc(Oc3ccnc4[nH]cc(-c5ccccc5)c34)c(F)c2)c(=O)n(-c2ccc(F)cc2)n1C", "LOC_OS03G50450-cb001", "°C", 0.52],
  ["N#C/C(=C\\c1ccc(O)c(O)c1)C(=O)NCc1ccccc1 [AG-490 (Tyrphostin B42)]", "LOC_OS03G50450-cb001", "°C", -0.29],
  ["C[C@@H]1COC(Nc2ccc3ncnc(Nc4ccc(OCc5nccs5)c(Cl)c4)c3c2)=N1 [Varlitinib]", "LOC_OS03G50450-cb001", "°C", 0.46],
  ["COCCNCc1ccc(-c2cc3nccc(Oc4ccc(NC(=O)C5(C(=O)Nc6ccc(F)cc6)CC5)cc4F)c3s2)nc1 [Sitravatinib (MGCD516)]", "LOC_OS03G50450-cb001", "°C", 0.57],
  ["Cc1[nH]c(/C=C2\\C(=O)Nc3ccc(S(=O)(=O)N(C)c4cccc(Cl)c4)cc32)c(C)c1C(=O)N1CCN(C)CC1", "LOC_OS03G50450-cb001", "°C", -0.1],
  ["COc1cc2nccc(Oc3ccc(NC(=O)C4(C(=O)Nc5ccc(F)cc5)CC4)cc3)c2cc1OC", "LOC_OS03G50450-cb001", "°C", 0.3],
  ["CCN(CC)CCNC(=O)c1c(C)[nH]c(/C=C2\\C(=O)Nc3ccc(-c4csc(-c5ccccc5)n4)cc32)c1C [Amcasertib (BBI503)]", "LOC_OS03G50450-cb001", "°C", 1.61],
  ["C=CC(=O)N1CCN(CCCn2c(=O)c(-c3c(Cl)c(OC)cc(OC)c3Cl)cc3cnc(NC)nc32)CC1", "LOC_OS03G50450-cb001", "°C", 0.92]
]}
